Numbers sourced from the nanobody polyreactivity screen of Harvey et al. (2022).

Test: yeast display, Sf9 membrane polyspecificity reagent, FACS + sequencing; frameworks hold sequencing errors
readout type: polyreactivity (PSR sort gate)

QVQLVESGGGLVQAGGSLRLSCAASGITCSYYTIGWYRQATGKEWELVATISQSSGSTYYADSVKGRFTISRDNAKNTVYLQINTLKPEDTAVYYCKARRDYEWVSWNVVDDYWGQGTQVTVSS | high polyreactivity
QVQLVESGVGLVQAGGSLRLSCASSGRIFGHYAMGWYRQAPGTERELVAAISWRGGRTYYADSVKGRFTISRDHAKNTVYLQMNSLKPEDTAVYYCAAGSSRVFRKAGITRPSGLYYYWGQGTQVSVSS | high polyreactivity
QFQLVESGRGLVQAGGSLRLSCAASVRIFRGYAKGWYRQAPGKEREFVAANTKNGGSTYYADSVKGRFTISRDYAKNTVYLQMNSLKPEDTAVYYCAVRAWEPYTGKSDYWGQGTQVTVSS | low polyreactivity
QVQLVESGGGLVQAGGSLRLSCAASGGNFGTNDMGWYRQAPGKERELVAAITSDSGSTYYADSVKGRFTISRDNAKNTVYLQMNSLKPEDTAVYYCAAEDGPWFYRYGYWGQGTQVTVSS | low polyreactivity
QVQLVESGGGLVQAGGSLRLSCAASGSIFGGYAMGWYRQAPGKEREWVAAITSSGGRTYYADSVKGRFTISRDNAKNTVYLQMNSLKPEDTAVYYCAARYTRWRYNYKDYDYWGQGTQVTVSS | high polyreactivity
QVQLVESGGALVQAGGSLRLSCAASGRIFGGYAMGWYRQAPGTERELVAAISSGGRTYYADSVKGRFTISRDNAKNTVYLQMNSLKPEDTAVYYCNAYTRGFRLGYWGQGTQVTVSS | high polyreactivity
QVQHVESGGGLVQAGGSLSLSCAASARTFRRNVMGLYRQAPGKERELVAAISYGANTNYADSVKGRFTISRDNAKNTVYLQMNSLKPEDTAVYYCAAGEGWRSRTFDYWGQGTQVTVSS | low polyreactivity
QVQLVESGGGLVQAGGSLRLSCAASGFIFLGYAMGWYRQAPGNERELVAAISESSGTTSYADSVKGRFTISRDNAKNTVYLQMNSLKPEDNAVYYCAADSIGNYLLYDYWGQCTQVTVSS | low polyreactivity
QVQLVESGGGLVQAGGSLRLSCAASGRIFIYAMGWYRQAPGKERELVAAISWSGGSTYYADSVKGRFTISRDNAKNTVYLQMNSLKPEDTAVYYCAADYEGWGYDYRGDYWGQGSQVTVSS | low polyreactivity
QVQLVESGGGLVQAGGSLRLSCAASGRTFYTNAMGWYRQAAGKERELVAVISRGGTTYYADSVKGRFTISRDNAKNTVYLQMNSLKPEDTAVYYCAKQRPSGDSSSQMGSWGQGTQVTVSS | low polyreactivity
QVQLVESGGGLVQAGGSLRLSCAASGRTFWAYAMGWYRPAPGKERELVSAITTSGGSTNYADSVKGRFTISRDNAKNTVYLHMIRLKPEDTAVYYCNADPTYHVVNGVGYWGQGTQVTVSS | low polyreactivity

----------
Assay: yeast display, Sf9 membrane polyspecificity reagent, FACS + sequencing; frameworks hold sequencing errors
readout type: polyreactivity (PSR sort gate)

QVQLVESGGGLVQAGGSLRLSCAASGLIFGGNAMGWYRQAPGKERELVAAISRTGGRTYYADSVKGRFTISRDNAKNTVFLQMNSLKPEDTAVYYCAAAAQRPEGYYWGQGTQVTVSS | high polyreactivity
QVQLVESGGGLVQAGGSLRLSCAASGSTFQFYALGWYRQAPGKERELVAAISVSGDRTYYADSVKGRFTISRDYAKNTVYLQMNSLKPEDTAVYYCAASIWHFEVVSWYLYDYWGQGTQVTVSS | high polyreactivity
QVQLEESGGGLVQAGGSLRLSCAASGSTIHDNDMGWYRQAPGKERELVAAISWSGGSTTYADSVKGRFTISRDNAKNTVYLQMNSLKPEDTAVYYCAADWYYWGFIFDYWGQGTQVTVSS | high polyreactivity

----------
Assay: yeast display, Sf9 membrane polyspecificity reagent, FACS + sequencing; frameworks hold sequencing errors
readout type: polyreactivity (PSR sort gate)

QVQLVESGGGLVQAGGSLRLSCAASGFTFPGYAMGWYRQAPGKERELVAAISYSSGSTYYADSVKGRFTISRDNAKNTVYLQMNSLKPEDTAVYYCAAYFSPVGFQYDYWGQGTQVTVSS | high polyreactivity
QVQIVESGGGLVQAGGSLRLSCAASGSIFYRYAMGWYRQAPGKEREFVAAIDYSGSITRYADSVKGRFTISRDNAKNTVYLQMNSLKPEDTAVYYCAARSYAKDWGGYNYWGQGTQVTVSS | high polyreactivity
QVQLVESGGGLVQAGGSLRLSCAASGSIFFDGNAMGWYRQAPGKERELVAAINSGGTTKYADSVKGRFTISRDNAKNTVYLQMNSLKPEDTAVYYCNAREGVFRYPVAHDYWGQGTQVTVSS | low polyreactivity
QVQLVESGGGLVQAGGSLRLSCAASGRTFTYNAMGWYRQAPGKERELVATINTSGASTSYADSVKGRFTISRDNAKNTVYLQMNCLKPEDTAVYYCNRDRRYYHRFDYWGQGTQVTVSS | low polyreactivity
QVQLVESGGGLVQAGGSLRLSCAATGSIFYAYAMGWYRQAPGKERELVAGISGGGSTNYADSVKGRFTISRDNAKNTVYLQMNSLKPEDTAVYYCAADGWLSATYDGLPDSDSWGQGTQVTVSS | high polyreactivity

----------
Assay: yeast display, Sf9 membrane polyspecificity reagent, FACS + sequencing; frameworks hold sequencing errors
readout type: polyreactivity (PSR sort gate)

QVQLVESGGGLVQAGGSLRLSCAASGSIFITYAMGWYRQAPGKERELVAAIRDSGDRTYYADSVKGRFTISRDNAKNTVYLQMNSLKPEDTEVYYCNALWQEPLKYDYWGQGTQVTVSS | low polyreactivity
QVQHVESGGGLVQAGGSLRLSCAASGRIFYAYAMGWYRQAPGKERELVASISGGGSTDYADSVKGRFTISRDNAKNTVYLQMNSLKPEDTGVYYCAAQYYLYRSRFDYWGQGTQVTVSS | high polyreactivity
QFQLVESGGGLVQAGGSLRLSCAASGRTFRGYAMGWYRQAPGKERELVPAITWRGGSTYYADSVKGRFTISRDNAKNTVYLQMKSLKPEDTAVYYCNTLVWSYLGGYYSRYDYWGQGTQVTVSS | high polyreactivity
QVQLVESGGGLVQAGGSLRLSCAASGGTFYYYAMGWYRQAPGKERELVAAISRDGSTYYADSVKGRFTISRDNAKNTVYLQMNSLKPEDTAVYYCAVRTRRKYGYWGQGTQVTVSS | high polyreactivity
QVQLVESGGGLVQAGGSLRLSCAASGFTFSTNAMGWYRQAPGKERELVAAISWSGSSTYYADSVKGRFTISRDNAKNTVYLQMNSLKPEDTAVYYCAKSRGQADPTYDYWGQGTQVTVSS | low polyreactivity

----------
Assay: yeast display, Sf9 membrane polyspecificity reagent, FACS + sequencing; frameworks hold sequencing errors
readout type: polyreactivity (PSR sort gate)

QVQLVESGGGLVQAGGSLRLSCAASGSIFPKYAMGWYRQAPGKEREFVAAISRRGGSTYYAYSVKGRFTISRDNAKNTVYLQMNSLKPEDTAVYYCSVKIPTYPIFGRYGYWGQGTQVTVSS | high polyreactivity
QVQLVESGGGLVQAGGSLRLSCAASGSIFGQNAMGWYRQAPGKERELVAAITSGAGITYYADSVKGRFTISRDNAKNTVYLQMNSLKPEDPAVYYCIAVPSWSPSPLFDYWGQGTQVTVSS | low polyreactivity
QVQLVESGGGLVQAGGSLRLSCAASGSIFYINPMGWYRQAPGKERELVAAINFSDGRTYYADSVKGRFTISRDNAKNTVYLQMNSLKPEDTAVYYCAAAVYPSEYDYWGQGTQVTVSS | low polyreactivity
QVQLVESGGGLVQAGGSLRLSCAASGLTFYSYAMGWYRQAPGKERELVAAISKSGGSTYYADSVKGRFTISRDNAKNSVYLQMNSLKPEDTAVYYCNALTKTGTPPDYDYWGQGTQVTVSS | high polyreactivity
QVQLVESGGGLVQAGGSLRLSCAASGSIFGYNAMGWYRQAPGKERELVAAITSSGGSTYNADSVKGRFTISRDNAKNTVYLQMNSLKPEDTAFYYCNSRDWYIVWYDYWGQGTQVTVSS | low polyreactivity

----------
Assay: yeast display, Sf9 membrane polyspecificity reagent, FACS + sequencing; frameworks hold sequencing errors
readout type: polyreactivity (PSR sort gate)

LQLVESGGGLVQAGGSLRLTSAASGSTFHRYAMGWYRQSPGKERELVAAISSRGGSTYYADSVKGRFTISRDNAKYTVYLQMNSLKPEDTAVYYCAVYGGRSGVPFDSMDYWGQGTQVTVTS | high polyreactivity
QVQLVESGGGLVQAGGSLRLSCAASGSIIVYNAMGWYRQAPGKERELVAAITGRVGSTYYADSVKGRFTISRDNAKNTVYLQMNSMKPEDTAVYYCAARSYFKWWYAMDYWGQGTQVTVSS | high polyreactivity
